System: HS 578T breast
experimentSummary: NCI-60 one-dose screen, 48 h (100 = growth as untreated, 0 = no growth, -100 = all killed)
measurementParameters: 10 µM unless noted
About 83,000 compounds went through this panel and 20% of them were active in at least one assay; those are over-represented in the sample as a whole.
metric: growth (%)
Report only the number, with the unit % understood.

Here is how some compounds turned out for growth.
>  <compound>
COc1ccc(-c2c3c(nc4n[nH]c(-c5ccc(Cl)cc5)c24)-c2ccccc2C(=O)C3=O)cc1

>  <reading>
7.1

$$$$
>  <compound>
COc1cnc2c(c1)C(=O)c1c-2n(CCCBr)c(=O)c2cc([N+](=O)[O-])ccc12

>  <reading>
36.9

$$$$
>  <compound>
CCOC(=O)c1ccc2c(c1)nc(/C=C/c1ccc(Cl)cc1)n2-c1cc(C(C)(C)C)[nH]n1

>  <reading>
51.3

$$$$
>  <compound>
COc1ccc(CCN2CCCn3c2nc2ccccc2c3=O)cc1

>  <reading>
38.9

$$$$
>  <compound>
Cc1cc(OCc2ccc(C(F)(F)F)cc2)c2c(c1)C(=O)C=C(NCCN1CCCC1)C2=O

>  <reading>
85

$$$$

Inquiry: Note down growth recorded for CNC(=O)c1cc(Oc2ccc3nc(NC(=O)Nc4ccc(CN5CCOCC5)c(C(F)(F)F)c4)sc3c2)ccn1
Reply text: 47.3

Inquiry: Note down growth recorded for Cc1ccc2cnc(N)c(C#Cc3cncc(C(=O)Nc4ccc(CN5CCN(C)CC5)c(C(F)(F)F)c4)c3)c2c1
Reply text: -39.2

Hey, just so you know, these numbers are from PubChem BioAssay (NCI).
